In this section we review reported growth inhibition values for a set of molecules.
Assay: NCI Yeast Anticancer Drug Screen. Data for the bub3 strain (AID 167)
Conditions: S. cerevisiae bub3 mutant strain, at 5.0 µM (retest, dose inferred, filed as 0.5), hits give high values
Compounds without any hit were thinned out: in the full panel of roughly 79,000, 15% have a hit.
Give the quantity in %, number only.

Example results:
CCOP(=O)(Cc1cccc2ccccc12)OCC :: 14
O=C1C(Cl)=C(Cl)C(=O)N1c1ccc(F)cc1 :: 35
NCCc1ccc(OCc2ccccc2)c(OCc2ccccc2)c1 :: -17
CCc1cccc(C(C)C)c1NC1=C([n+]2ccc(C)cc2)C(=O)c2ccccc2C1=O :: 5
CCC[CH2][Sn]([Cl])([Cl])[CH2]CCC :: 98
Cc1cccc2cc3ccccc3c[n+]12 :: -1
[Ni+2].[SH2+]C([SH2+])=Nc1ccccc1.[SH2+]C([SH2+])=Nc1ccccc1.c1ccc(C[P+](c2ccccc2)(c2ccccc2)c2ccccc2)cc1 :: 8
O=[N+]([O-])c1cc([N+](=O)[O-])c2cccnc2c1O :: -7

Just so you know, measured growth inhibition for CCOC(=O)C1([Se]c2ccccc2)CCCC1=O (centres undefined) came out at 10

All values here come from PubChem BioAssay (NCI).
